Biological target: T1, human SLITRK6 on cells (human, UniProt Q9H5Y7 27-841)
T1 construct: whole, on cells
Assay: flow cytometry on SCC-4 cells
measured-property: pEC50
Reminder that pEC50 means the negative base-10 logarithm of the concentration expressed in mol/L.

// solved cases for pEC50 follow
phA108 (antibody, V domains shown, From phage display, then full-length construction; Only the variable regions are tied to the name) VH: QVQLVQSGAEVKKPGASVKVSCTASGYIFNDYYLHWVRQAPGQGLEWVGIINPSGGSPVYAQKFQGRVTMTRDTSTNTVYMELSSLRSEDTAVYYCARGMVRGVRLFDYWGQGTLVTVSA VL: EIVLTQSPATLSLSPGERATLSCRASQSVSSYLAWYQQKPGQTPRLLIYDASNRATGVPARFSGSGSGTDFTLTISSLETEDFAVYYCQQRTNWPLTFGGGTKVEIK :: 9.74
hu14G1-03 (antibody, V domains shown) VH: EVQLVESGGGLVQPGGSLRLSCAASGFTFSDYGMHWVRQAPGKGLEWVSYISPGSSTIYYADTMKGRFTISRDNAKNSLYLQMNSLRAEDTAVYYCARAYGGSYWYFAVWGQGTLVTVSS VL: DIQMTQSPSSLSASVGDRVTITCRASGNIHSYLAWYQQKPGKSPQLLVYNAKTLADGVPSRFSGSGSGTDYTLTISSLQPEDFGTYYCQHFWSTPYTFGGGTKLEIK :: 9.36

Next binder, pEC50 to be filled in.
Prompt line: # input binder: hu1H2-03 (antibody, V domains shown, see m20) VH: EVQLVESGGGLVQPGGSLRLSCAASGFTFSDYGLHWVRQAPGKGLEWVSYISSGSSTVYFADTLKGRFTISRDNAKNSLYLQMNSLRAEDTAVYYCTRGTWYFDVWGRGTLVTVSS VL: DIQMTQSPSSLSASVGDRVTITCRTSENIHSYLAWYQQKPGKSPQLLVYNAKTLADGVPSRFSGSGSGTDYTLTISSLQPEDFGTFYCQHFWTTSRTFGGGTKVEIK ; wanted: its pEC50
Response line: 9.57

Value source: patent US20250296992A1
